PROTOCOL: Oligomeric status by native PAGE
Format: physicochemical
RECORDED CONDITIONS: 15 μg protein, 10% native gel (legend: 12%), Coomassie blue
ENDPOINT LABEL: migration on native PAGE / oligomeric state

Ask: Requested read-out: migration on native PAGE / oligomeric state. Entry: N173V (protein, left off: His6, end not stated, cleaved) MDKNELVQKAKLAEQAERYDDMAACMKSVTEQGAELSNEERNLLSVAYKNVVGARRSSWRVVSSIEQKTEGAEKKQQMAREYREKIETELRDICNDVLSLLEKFLIPNASQAESKVFYLKMKGDYYRYLAEVAAGDDKKGIVDQSQQAYQEAFEISKKEMQPTHPIRLGLALVFSVFYYEILNSPEKACSLAKTAFDEAIAELDTLSEESYKDSTLIMQLLRDNLTLWTSDTQGDEAEAGEGGEN
Reply: migrated as dimers

Ask: # iterate: D124A (protein, left off: His6, end not stated, cleaved) MDKNELVQKAKLAEQAERYDDMAACMKSVTEQGAELSNEERNLLSVAYKNVVGARRSSWRVVSSIEQKTEGAEKKQQMAREYREKIETELRDICNDVLSLLEKFLIPNASQAESKVFYLKMKGAYYRYLAEVAAGDDKKGIVDQSQQAYQEAFEISKKEMQPTHPIRLGLALNFSVFYYEILNSPEKACSLAKTAFDEAIAELDTLSEESYKDSTLIMQLLRDNLTLWTSDTQGDEAEAGEGGEN
Reply: migrated as dimers
